Hello, the source for this data is PubChem BioAssay (NCATS), in case you need it.

z-score: recorded values
Test Name: qHTS for identification of novel therapeutic agents for treatment of microphthalmiaassociated transcription factor (MiT) renal cell carcinoma (RCC) (AID 1963991);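 further: curves scaled with 100% = DMSO viability and 0% = empty wells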
Condition Notes: TFE3-RCC viability, CellTiter-Glo, 48 h; measured here: UOK145 Z-AUC; stronger effect = lower value
Records with an inconclusive call do not appear.
Reported Property: z-score

molecule=Cc1nc2c([nH]1)CCN(C(=O)c1ccc(NC(=O)c3ccccc3-c3ccccc3)cc1)c1ccccc1-2 observed_value=0.369
molecule=Cc1ccc(C(=O)N(CCCN)[C@@H](c2nc3cc(Cl)ccc3c(=O)n2Cc2ccccc2)C(C)C)cc1 observed_value=-1.7
molecule="O=C(O)C1=NC(C(=O)O)CC(C=CN2c3cc(O)c(OC4OC(CO)C(O)C(O)C4O)cc3CC2C(=O)O)=C1 (stereo not given)" observed_value=0.57
molecule="CC1=C(C(=O)Nc2cc3cn[nH]c3cc2F)C(c2ccc(C(F)(F)F)cc2)CC(=O)N1 (stereo not given)" observed_value=0.771
molecule=CO[C@H]1/C=C\O[C@@]2(C)Oc3c(C)c(O)c4c(O)c(c(C=NN5CCN(C6CCCC6)CC5)c(O)c4c3C2=O)NC(=O)C(C)=CC=C[C@H](C)[C@H](O)[C@@H](C)[C@@H](O)[C@@H](C)[C@H](OC(C)=O)[C@H]1C observed_value=-2.93
